Data credit: paper PMC9785925

EXPERIMENTAL TARGET: Tm-MreB (Thermotoga maritima)
Construct: recombinant in E. coli ArcticExpress (DE3), Ni-NTA purified, His-tag removed with PreScission protease; native purification
Sequence (Q9WZ57 1-336): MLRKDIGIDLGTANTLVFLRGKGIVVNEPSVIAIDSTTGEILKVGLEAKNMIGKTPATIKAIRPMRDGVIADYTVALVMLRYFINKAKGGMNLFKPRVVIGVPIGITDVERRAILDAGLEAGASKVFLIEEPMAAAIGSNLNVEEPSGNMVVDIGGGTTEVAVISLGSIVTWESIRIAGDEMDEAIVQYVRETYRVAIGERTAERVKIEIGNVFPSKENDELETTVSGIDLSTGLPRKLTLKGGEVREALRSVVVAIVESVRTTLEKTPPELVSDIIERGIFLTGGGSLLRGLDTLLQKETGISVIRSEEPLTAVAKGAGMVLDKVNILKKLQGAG
ASSAY: TNP-ATP fluorescence titration, Hill fit
PROPERTY LABEL: Kd (µM)
# number only, unit µM dropped from output

# get_value(readout= Kd, system= Tm-MreB (Thermotoga maritima)) for Nc1ncnc2c1ncn2[C@@H]1O[C@H](COP(=O)(O)OP(=O)(O)OP(=O)(O)O)[C@H]2OC3(O[C@H]21)C([N+](=O)[O-])=CC(=[N+]([O-])[O-])C=C3[N+](=O)[O-] (stereo partly shown) [TNP-ATP]
3.69
